Method Summary: Solubility/stability (chemiluminescent nitrogen detector)
Type: physicochemical
Assay Context: water
Listing: solubility of selected molecules

# Molecule, solubility
data = [
    ("CC(=O)N(CC1CCN(c2ncc(C(=O)NO)cn2)CC1)C(C)/C=C/c1ccccc1 (stereo not drawn)", "> 100 µg/mL"),
    ("CC(/C=C/c1ccccc1)NCC1CCN(c2ncc(C(=O)NO)cn2)CC1 (stereo not drawn)", "> 1000 µg/mL"),
    ("O=C(NO)c1cnc(N2CCC(NC(/C=C/c3ccccc3)CO)CC2)nc1 (stereo not drawn)", "> 500 µg/mL"),
]

====

Target System: histone deacetylase (HeLa nuclear extracts)
Method Summary: In vitro assay for inhibition of histone deacetylase (HDAC Fluorescent Activity Assay, Fluor de Lys)
Format: biochemical
Assay Context: HeLa nuclear extracts 60 μg/ml, 75 μM Fluor de Lys substrate
Description: The in vitro assay for inhibition of histone deacetylase (see example C.1) measures the inhibition of HDAC enzymatic activity obtained with the compounds of formula (I). The HDAC Fluorescent Activity Assay/Drug Discovery Kit of Biomol (cat.No: AK-500-0001) was used. […] HeLa nuclear extracts (supplier: Biomol) were incubated at 60 μg/ml with 75 μM of substrate. […] The fluorophore was excited with 355 nm light and the emitted light (450 nm) was be detected on a fluorometric plate reader. […]
Parameter: Enzyme activity pIC50

# Molecule, Target System, Data Value
records = [
    ("O=C(NO)c1cnc(N2CCOC(CNC(/C=C/c3ccccc3)CO)C2)nc1 (centres unmarked)", "histone deacetylase (HeLa nuclear extracts)", 8.1),
    ("O=C(NO)c1cnc(N2CCC(NC(/C=C/c3ccccc3)CO)CC2)nc1 (centres unmarked)", "histone deacetylase (HeLa nuclear extracts)", 8.0),
    ("Nc1ccccc1NC(=O)c1cnc(N2CCC(CNC(/C=C/c3ccccc3)CO)CC2)nc1 (centres unmarked)", "histone deacetylase (HeLa nuclear extracts)", 6.0),
    ("CC(/C=C/c1ccccc1)N(CC1CCN(c2ncc(C(=O)NO)cn2)CC1)S(C)(=O)=O (centres unmarked)", "histone deacetylase (HeLa nuclear extracts)", 9.5),
    ("CC(/C=C/c1ccccc1)NCC1CCN(c2ncc(C(=O)NO)cn2)CC1 (centres unmarked)", "histone deacetylase (HeLa nuclear extracts)", 8.3),
    ("O=C(NO)c1cnc(N2CCC(CNC(/C=C/c3ccccc3)CO)CC2)nc1 (centres unmarked)", "histone deacetylase (HeLa nuclear extracts)", 9.0),
    ("Nc1ccccc1NC(=O)c1cnc(N2CCOC(CNC(/C=C/c3ccccc3)CO)C2)nc1 (centres unmarked)", "histone deacetylase (HeLa nuclear extracts)", 6.0),
    ("CC(=O)N(CC1CCN(c2ncc(C(=O)NO)cn2)CC1)C(C)/C=C/c1ccccc1 (centres unmarked)", "histone deacetylase (HeLa nuclear extracts)", 8.7),
]

====

Listing: melting point of selected molecules
Parameter: melting point (°C)

# Molecule, Data Value
data = [
    ("CC(/C=C/c1ccccc1)N(CC1CCN(c2ncc(C(=O)NO)cn2)CC1)S(C)(=O)=O (stereo not shown)", 110),
    ("Nc1ccccc1NC(=O)c1cnc(N2CCOC(CNC(/C=C/c3ccccc3)CO)C2)nc1 (stereo not shown)", 95),
    ("CC(/C=C/c1ccccc1)NCC1CCN(c2ncc(C(=O)NO)cn2)CC1 (stereo not shown)", 155),
    ("O=C(NO)c1cnc(N2CCOC(CNC(/C=C/c3ccccc3)CO)C2)nc1 (stereo not shown)", 111),
]
